experimental.target: T1, human PDGFRb.mFc (human)
T1 construct: Soluble dimeric construct with mouse Fc; also called hPDGFRb.mFc; soluble human PDGFR-beta.mFc
T1 chain: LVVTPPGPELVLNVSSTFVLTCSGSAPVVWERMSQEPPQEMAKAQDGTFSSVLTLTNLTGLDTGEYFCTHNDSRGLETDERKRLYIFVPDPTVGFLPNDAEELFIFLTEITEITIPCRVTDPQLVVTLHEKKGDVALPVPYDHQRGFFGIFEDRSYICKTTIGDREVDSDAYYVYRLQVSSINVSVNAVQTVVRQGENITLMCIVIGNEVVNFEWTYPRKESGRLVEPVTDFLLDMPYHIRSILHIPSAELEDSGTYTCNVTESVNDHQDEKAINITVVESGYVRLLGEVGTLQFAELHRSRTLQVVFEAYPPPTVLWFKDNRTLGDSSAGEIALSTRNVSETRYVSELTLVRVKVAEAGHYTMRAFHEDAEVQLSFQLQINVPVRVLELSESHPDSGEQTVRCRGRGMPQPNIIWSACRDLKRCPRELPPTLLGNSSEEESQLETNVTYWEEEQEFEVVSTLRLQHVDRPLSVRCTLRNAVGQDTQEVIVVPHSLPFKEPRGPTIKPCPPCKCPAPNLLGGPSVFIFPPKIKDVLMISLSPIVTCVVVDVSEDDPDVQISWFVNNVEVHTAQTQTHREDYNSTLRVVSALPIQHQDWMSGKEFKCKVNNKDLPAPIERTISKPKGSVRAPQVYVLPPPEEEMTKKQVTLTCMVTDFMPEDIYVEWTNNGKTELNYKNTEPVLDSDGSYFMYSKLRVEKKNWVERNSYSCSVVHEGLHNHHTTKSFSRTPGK
test.method.notes: SPR, mAb captured, 25 C
readout: koff

[[record]]
binder = "H2M3373N (antibody, V domains shown, mouse Fc (H2M prefix; isotype not spelled out)) VH: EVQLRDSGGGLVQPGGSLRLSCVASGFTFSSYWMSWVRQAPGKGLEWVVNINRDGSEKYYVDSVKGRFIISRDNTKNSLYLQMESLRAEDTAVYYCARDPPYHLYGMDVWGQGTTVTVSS VL: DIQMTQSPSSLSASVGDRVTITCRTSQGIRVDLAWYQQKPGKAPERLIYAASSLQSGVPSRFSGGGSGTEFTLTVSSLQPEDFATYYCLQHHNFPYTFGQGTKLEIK"
readout = "koff"
recorded_result = "0.00024 s⁻¹"

[[record]]
binder = "H1M3361N (antibody, mouse IgG1, V domains shown, mouse IgG1 Fc (H1M prefix)) VH: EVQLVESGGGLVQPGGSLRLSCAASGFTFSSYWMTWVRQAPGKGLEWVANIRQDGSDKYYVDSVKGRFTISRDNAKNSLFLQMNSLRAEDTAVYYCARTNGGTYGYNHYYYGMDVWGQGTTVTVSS VL: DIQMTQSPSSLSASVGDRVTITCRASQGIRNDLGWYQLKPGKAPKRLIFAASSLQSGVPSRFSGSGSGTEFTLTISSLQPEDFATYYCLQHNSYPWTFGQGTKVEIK"
readout = "koff"
recorded_result = "≤ 1e-06 s⁻¹"

[[record]]
binder = "H2M3368N (antibody, V domains shown, mouse Fc (H2M prefix; isotype not spelled out)) VH: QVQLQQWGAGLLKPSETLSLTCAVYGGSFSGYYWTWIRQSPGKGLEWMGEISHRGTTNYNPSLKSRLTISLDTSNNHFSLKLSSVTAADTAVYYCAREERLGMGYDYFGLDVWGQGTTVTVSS VL: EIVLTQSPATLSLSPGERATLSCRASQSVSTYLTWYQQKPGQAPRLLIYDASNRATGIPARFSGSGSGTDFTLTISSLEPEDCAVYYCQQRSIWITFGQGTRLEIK"
readout = "koff"
recorded_result = "3.7e-05 s⁻¹"

[[record]]
binder = "H1M3374N (antibody, V domains shown, mouse Fc format; also called H2M3374N) VH: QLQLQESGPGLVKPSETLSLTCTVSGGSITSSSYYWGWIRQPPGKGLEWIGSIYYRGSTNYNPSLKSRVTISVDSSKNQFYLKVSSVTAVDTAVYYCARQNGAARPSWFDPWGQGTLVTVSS VL: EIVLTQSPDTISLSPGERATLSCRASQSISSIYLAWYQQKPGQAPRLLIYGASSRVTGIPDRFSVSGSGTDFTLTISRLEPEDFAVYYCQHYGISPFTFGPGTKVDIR"
readout = "koff"
recorded_result = "0.000107 s⁻¹"

